Target: recombinant human PLA2G2A (sPLA2) (Homo sapiens, UniProt P14555)
Construct: purchased Creative BioMart PLA2G2A-669H
Sequence (P14555 21-144): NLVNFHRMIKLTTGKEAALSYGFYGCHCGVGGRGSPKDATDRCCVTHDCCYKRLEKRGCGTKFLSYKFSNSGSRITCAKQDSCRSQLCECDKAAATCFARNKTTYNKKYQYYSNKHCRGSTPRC
Assay: Oleic acid release from phospholipid-loaded stenfilcon A lenses in ATF with and without sPLA2 (digestion assay, LCMS)
Format: biochemical
Conditions: ATF without sPLA2; 4 mm piece of loaded stenfilcon A lens, 100 μL, 35±2° C., 4 hours
Structures can show the parent of a compound that is named as a salt.
property: Oleic acid peak area in ATF

INPUT: What value of Oleic acid peak area in ATF has been recorded for this entry: CCCCCCCC/C=C\CCCCCCCC(=O)OC[C@H](COP(=O)(O)OC[C@H](N)C(=O)O)OC(=O)CCCCCCC/C=C\CCCCCCCC [DOPS, (sodium salt)]
OUTPUT: 88

P. CCCCCCCC/C=C\CCCCCCCC(=O)OC[C@H](COP(=O)([O-])OCC(O)CO)OC(=O)CCCCCCC/C=C\CCCCCCCC.[Na+] (mixture of isomers)
Q. CCCCCCCC/C=C\CCCCCCCC(=O)OC[C@H](COP(=O)(O)OCCN)OC(=O)CCCCCCC/C=C\CCCCCCCC
R. CCCCCCCC/C=C\CCCCCCCC(=O)OC[C@H](COP(=O)([O-])OCC[N+](C)(C)C)OC(=O)CCCCCCC/C=C\CCCCCCCC [DOPC, 1,2-dioleoyl-sn-glycero-3-phosphocholine, reference compound]
INPUT: Arrange items by their Oleic acid peak area in ATF values in increasing order. # list labels per requested ordering
OUTPUT: P, R, Q
(P: 36, R: 102, Q: 463)
